B1: library; numbered along this chain (parent)
chain: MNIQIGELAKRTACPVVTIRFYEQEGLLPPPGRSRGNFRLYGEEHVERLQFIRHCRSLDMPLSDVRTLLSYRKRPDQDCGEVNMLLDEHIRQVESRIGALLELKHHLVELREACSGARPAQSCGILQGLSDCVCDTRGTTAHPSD

Variants of: B1
Test: sfGFP reporter fluorescence (15 h) (µM FITC); higher = higher leak
Conditions: library round: Round 0; ligand: none
Below, each entry is listed with its recorded sfGFP reporter fluorescence.
Give the value as a plain number.

// lookup sfGFP reporter fluorescence for `L126A` 0.0685

Source listed as the supplement of paper PMC12783771.
